measurement.target: second (BD2: amino acids E352-E168) bromodomain of BRD4 (Homo sapiens, UniProt O60885)
Construct: protocol
experiment.summary: TR-FRET bromodomain binding assay, BRD4 BD2
measurement.setup: TR-FRET assay protocol (D, E or G) per compound; Ki calculated from IC50, probe Kd and probe concentration; read-out: TR-FRET Binding Ki: BRD4 (BDII_E352-M457)
Please respond with criterion met when measured Ki is strictly beneath 20 nM, and with criterion not met in all other cases.

## Task Please indicate whether the reported Ki of `CCOc1cc(=O)n(C)cc1-c1cc(NC(=O)c2ccccn2)ccc1Oc1ccc(F)cc1F` is strictly below 20 nM.
## Result criterion not met

## Task Please indicate whether the reported Ki of `CCOC(=O)N1CCC(Oc2ccc(NS(=O)(=O)CC)cc2-c2cn(C)c(=O)cc2OCC)CC1` is strictly below 20 nM.
## Result criterion not met

## Task Please indicate whether the reported Ki of `CCOc1cc(=O)n(C)cc1-c1cc(NC(=O)c2cnc(C)cn2)ccc1Oc1ccc(F)cc1F` is strictly below 20 nM.
## Result criterion not met

## Task Please indicate whether the reported Ki of `CCOc1cc(=O)n(C)cc1-c1cc(S(=O)(=O)CC)ccc1Oc1ccc(C#N)cc1` is strictly below 20 nM.
## Result criterion not met

## Task Please indicate whether the reported Ki of `CCS(=O)(=O)Nc1ccc(Oc2ccc(F)cc2F)c(-c2cn(C)c(=O)cc2-c2ccco2)c1` is strictly below 20 nM.
## Result criterion met

## Task Please indicate whether the reported Ki of `CCS(=O)(=O)c1ccc(Oc2ccc(F)cc2F)c(-c2cn(C)c(=O)cc2OCC(F)(F)F)c1` is strictly below 20 nM.
## Result criterion not met

## Task Please indicate whether the reported Ki of `CCS(=O)(=O)Nc1ccc(Oc2ccc(F)cc2F)c(-c2cn(C)c(=O)cc2-c2ccoc2)c1` is strictly below 20 nM.
## Result criterion met

## Task Please indicate whether the reported Ki of `CCOc1cc(=O)n(C)cc1-c1cc(NS(=O)(=O)c2ccc(Cl)cc2Cl)ccc1Oc1ccc(F)cc1F` is strictly below 20 nM.
## Result criterion not met

## Task Please indicate whether the reported Ki of `CCOc1cc(=O)n(C)cc1-c1cc(S(C)(=O)=O)ccc1NCc1ccc(F)cc1F` is strictly below 20 nM.
## Result criterion not met

## Task Please indicate whether the reported Ki of `CCOc1cc(=O)n(C)cc1-c1cc(NS(=O)(=O)CC)ccc1OC1CCC1` is strictly below 20 nM.
## Result criterion not met

## Task Please indicate whether the reported Ki of `CCOc1cc(=O)n(C)cc1-c1cc(N(C)S(=O)(=O)Cc2ccccc2)ccc1Oc1ccc(F)cc1F` is strictly below 20 nM.
## Result criterion not met

## Task Please indicate whether the reported Ki of `CCOc1cc(=O)n(C)cc1-c1cc(NS(=O)(=O)CC)ccc1Oc1ccc(F)c(F)c1` is strictly below 20 nM.
## Result criterion met

## Task Please indicate whether the reported Ki of `CCS(=O)(=O)c1ccc(Oc2ccc(F)cc2F)c(-c2cn(C)c(=O)cc2Cl)c1` is strictly below 20 nM.
## Result criterion not met

## Task Please indicate whether the reported Ki of `CCOc1cc(=O)n(C)cc1-c1cc(NS(=O)(=O)CC)ccc1Oc1ccc(C#N)cc1F` is strictly below 20 nM.
## Result criterion met

## Task Please indicate whether the reported Ki of `CCOc1cc(=O)n(C)cc1-c1cc(NS(=O)(=O)CC)ccc1OCC1CC1` is strictly below 20 nM.
## Result criterion not met

## Task Please indicate whether the reported Ki of `CCOc1cc(=O)n(C)cc1-c1cc(NS(=O)(=O)CC)ccc1Oc1ccc(OC(F)(F)F)cc1` is strictly below 20 nM.
## Result criterion met

----------
measurement.target: first (BD1: amino acids K57-E168) bromodomain of BRD4 (Homo sapiens, UniProt O60885)
Construct: His-tagged first (BD1: amino acids K57-E168)
experiment.summary: TR-FRET bromodomain binding assay, BRD4 BD1
measurement.setup: TR-FRET assay protocol (A-G, compound concentration range); Ki calculated from IC50, probe Kd and probe concentration; read-out: TR-FRET Binding Ki: BRD4 (BDI_K57-E168)
endpoint.name: pKi
FYI, pKi means -log10 of a concentration in mol per litre.

// `CNC(=O)c1cccc(-c2cc(=O)n(C)nc2-c2ccccc2Oc2ccccc2)c1` : pKi value = 5.79

// `CCS(=O)(=O)Nc1ccc(Oc2ccc(F)cc2F)c(-c2cn(C)c(=O)cc2OCCN2CCOCC2)c1` : pKi value = 7.08

// `Cn1nc(-c2ccccc2Oc2ccccc2)c(-c2ccnc(N3CCOCC3)c2)cc1=O` : pKi value = 5.22

// `Cn1nc(-c2ccccc2Oc2ccccc2)c(-c2cccc(C(=O)N3CCSCC3)c2)cc1=O` : pKi value = 5.62

// `COc1cc(=O)n(C)nc1-c1cc(NC(C)=O)ccc1Oc1ccccc1` : pKi value = 6.83

// `CC(=O)NCc1ccc(Oc2ccccc2)c(-c2ccc(=O)n(C)n2)c1` : pKi value = 5.95

// `CCS(=O)(=O)Nc1ccc(Oc2ccc(F)cc2F)c(-c2cn(C)c(=O)cc2OCCC(C)(C)O)c1` : pKi value = 7.47

// `CC(C)S(=O)(=O)c1ccc(Oc2ccc(F)cc2F)c(-c2ccc(=O)n(C)c2)c1` : pKi value = 7.07

// `CCNC(=O)c1ccc(-c2cc(=O)n(C)nc2-c2ccccc2Oc2ccccc2)cc1` : pKi value = 6.64

// `Cc1ccc(-c2cc(=O)n(C)nc2-c2ccccc2Oc2ccccc2)cn1` : pKi value = 5.97

// `Cc1cc(-c2cc(=O)n(C)nc2-c2ccccc2Oc2ccccc2)cnc1N1CCOCC1` : pKi value = 6.15

// COC(=O)C1CCN(c2cc(=O)n(C)nc2-c2ccccc2Oc2ccccc2)C1 (centres unmarked) : pKi value = 5.03

// `COc1cc(=O)n(C)nc1-c1cccc(NS(C)(=O)=O)c1` : pKi value = 5.05

// `CNC(=O)c1cncc(-c2cc(=O)n(C)nc2-c2ccccc2Oc2ccccc2)c1` : pKi value = 5.07

----------
measurement.target: first (BD1: amino acids K57-E168) bromodomain of BRD4 (Homo sapiens, UniProt O60885)
Construct: His-tagged first (BD1: amino acids K57-E168)
experiment.summary: TR-FRET bromodomain binding assay, BRD4 BD1
measurement.setup: TR-FRET assay protocol (A-G, compound concentration range); Ki calculated from IC50, probe Kd and probe concentration; read-out: TR-FRET Binding Ki: BRD4 (BDI_K57-E168)
endpoint.name: pKi
FYI, pKi means -log10 of a concentration in mol per litre.

// `CCOC(=O)Cc1ccc(-c2cc(=O)n(C)nc2-c2ccccc2Oc2ccccc2)cc1` : pKi value = 6.25

// `Cn1cc(-c2cc(NS(C)(=O)=O)ccc2Oc2cc(F)cc(F)c2)ccc1=O` : pKi value = 7.35

// `CCn1cc(-c2cc(=O)n(C)nc2-c2ccccc2Oc2ccccc2)cn1` : pKi value = 7.05

// `CCOc1cc(=O)n(C)cc1-c1cc(CS(C)(=O)=O)ccc1Oc1ccc(F)cc1F` : pKi value = 7.28

// `CC1CCN(Cc2ccc(-c3cc(=O)n(C)nc3-c3ccccc3Oc3ccccc3)cc2)CC1` : pKi value = 7.20

// `Cn1nc(-c2ccccc2Oc2ccccc2)c(-c2ccc(C(=O)NC3CC3)cc2)cc1=O` : pKi value = 6.48

// `Cn1nc(-c2ccccc2Cc2ccccc2)ccc1=O` : pKi value = 5.16

// `COc1cc(=O)n(C)nc1-c1ccccc1OC1CCCCC1` : pKi value = 5.45

// `CCN(CC)Cc1ccc(-c2cc(=O)n(C)nc2-c2ccccc2Oc2ccccc2)cc1` : pKi value = 7.01

----------
Give Ki for every item shown.
measurement.target: first (BD1: amino acids K57-E168) bromodomain of BRD4 (Homo sapiens)
Construct: His-tagged first (BD1: amino acids K57-E168)
experiment.summary: TR-FRET bromodomain binding assay, BRD4 BD1
measurement.setup: TR-FRET assay protocol (A-G, compound concentration range); Ki calculated from IC50, probe Kd and probe concentration; read-out: TR-FRET Binding Ki: BRD4 (BDI_K57-E168)

// CCOc1ccc(-c2cc(=O)n(C)nc2-c2ccccc2Oc2ccccc2)cc1 [Example 117] : Ki value = 1490 nM

// Cn1nc(-c2ccccc2Oc2ccccc2)c(-c2ccc(NS(C)(=O)=O)cc2)cc1=O [Example 119] : Ki value = 135 nM

// Cn1nc(-c2ccccc2Oc2ccccc2)c(-c2ccnc(N)c2)cc1=O [Example 200] : Ki value = 344 nM

// COC(=O)CCc1ccc(-c2cc(=O)n(C)nc2-c2ccccc2Oc2ccccc2)cc1 [Example 92] : Ki value = 770 nM

// CCS(=O)(=O)Nc1ccc(Oc2ccc(F)cc2F)c(-c2cn(C)c(=O)cc2OCCN(C)C)c1 [Example 288] : Ki value = 190 nM

// CN(C)CCCNC(=O)c1ccc(-c2cc(=O)n(C)nc2-c2ccccc2Oc2ccccc2)cc1 [Example 150] : Ki value = 471 nM

// CCS(=O)(=O)Nc1ccc(Oc2ccc(F)cc2F)c(-c2cn(C)c(=O)cc2-c2ccc(CN3CCN(C)CC3)cc2)c1 [Example 279] : Ki value = 2.73 nM

// COC(C)c1cccc(-c2cc(=O)n(C)nc2-c2ccccc2Oc2ccccc2)c1 (centres unmarked) [Example 134] : Ki value = 4320 nM

// Cn1cc(-c2ccccc2Oc2ccccc2)cc(Cl)c1=O [Example 281] : Ki value = 150 nM

// Cc1ccc(-c2cc(=O)n(C)nc2-c2cc(NS(C)(=O)=O)ccc2Oc2ccccc2)cc1 [Example 63] : Ki value = 85.2 nM

// CN(C)C(=O)c1ccc(-c2cc(=O)n(C)nc2-c2ccccc2Oc2ccccc2)cc1 [Example 108] : Ki value = 410 nM
